Assignment: determine reported AUC(0-inf) for the given molecules.
Test: in vivo
Conditions: male, SD, rat, iv, AUC0-∞, SD rats, i.v. 2 mg 25/kg, Mean ± SD (Rat 1 and 3)
// return numeric value only (unit: ng·h/mL, not printed)

Asked: Please report the measured AUC(0-inf) for CCCCCCCC(=O)Oc1cccc(O)c1C(=O)NC(=O)NC1c2ccccc2-c2ccccc21 [Compound 25]
Given back: 5.48

Asked: Note AUC(0-inf) for the molecule shown: O=C(NC(=O)c1c(O)cccc1O)NC1c2ccccc2-c2ccccc21 [Compound 1]
Given back: 329

* * *

Test system: HCV Con1-1b replicon
Assay: HCV Con1-1b subgenomic replicon assay
Type: cell-based
Conditions: Hepatitis C virus; Table 4; read-out: Anti-HCV Activity EC50 ± SD Replicon Assay Con1-1b
Give measured pEC50 for each item. Keep answers brief.
Interpret pEC50 as the negative base-10 log of the concentration measured in mol/L.

Asked: Respond only with pEC50 recorded for CC(=O)Oc1cccc(OC(C)=O)c1C(=O)NC(=O)NC1c2ccccc2-c2ccccc21 [Compound 15]
Given back: 6.44

Asked: Could you please provide reported pEC50 for CCCCCCCC(=O)Oc1cccc(O)c1C(=O)NC(=O)NC1c2ccccc2-c2ccccc21 [Compound 25] ? Thanks!
Given back: 6.09

Asked: # return recorded pEC50 for input CCCCCCCC(=O)Oc1cccc(OC(=O)CCCCCCC)c1C(=O)NC(=O)NC1c2ccccc2-c2ccccc21 [Compound 33]
Given back: 6.14

Asked: Retrieve pEC50 measured for CCCCC(=O)Oc1cccc(OC(=O)CCCC)c1C(=O)NC(=O)NC1c2ccccc2-c2ccccc21 [Compound 30] and print it.
Given back: 6.08

* * *

Molecular target: hERG channels (Homo sapiens)
Sequence (Q12809 whole entry): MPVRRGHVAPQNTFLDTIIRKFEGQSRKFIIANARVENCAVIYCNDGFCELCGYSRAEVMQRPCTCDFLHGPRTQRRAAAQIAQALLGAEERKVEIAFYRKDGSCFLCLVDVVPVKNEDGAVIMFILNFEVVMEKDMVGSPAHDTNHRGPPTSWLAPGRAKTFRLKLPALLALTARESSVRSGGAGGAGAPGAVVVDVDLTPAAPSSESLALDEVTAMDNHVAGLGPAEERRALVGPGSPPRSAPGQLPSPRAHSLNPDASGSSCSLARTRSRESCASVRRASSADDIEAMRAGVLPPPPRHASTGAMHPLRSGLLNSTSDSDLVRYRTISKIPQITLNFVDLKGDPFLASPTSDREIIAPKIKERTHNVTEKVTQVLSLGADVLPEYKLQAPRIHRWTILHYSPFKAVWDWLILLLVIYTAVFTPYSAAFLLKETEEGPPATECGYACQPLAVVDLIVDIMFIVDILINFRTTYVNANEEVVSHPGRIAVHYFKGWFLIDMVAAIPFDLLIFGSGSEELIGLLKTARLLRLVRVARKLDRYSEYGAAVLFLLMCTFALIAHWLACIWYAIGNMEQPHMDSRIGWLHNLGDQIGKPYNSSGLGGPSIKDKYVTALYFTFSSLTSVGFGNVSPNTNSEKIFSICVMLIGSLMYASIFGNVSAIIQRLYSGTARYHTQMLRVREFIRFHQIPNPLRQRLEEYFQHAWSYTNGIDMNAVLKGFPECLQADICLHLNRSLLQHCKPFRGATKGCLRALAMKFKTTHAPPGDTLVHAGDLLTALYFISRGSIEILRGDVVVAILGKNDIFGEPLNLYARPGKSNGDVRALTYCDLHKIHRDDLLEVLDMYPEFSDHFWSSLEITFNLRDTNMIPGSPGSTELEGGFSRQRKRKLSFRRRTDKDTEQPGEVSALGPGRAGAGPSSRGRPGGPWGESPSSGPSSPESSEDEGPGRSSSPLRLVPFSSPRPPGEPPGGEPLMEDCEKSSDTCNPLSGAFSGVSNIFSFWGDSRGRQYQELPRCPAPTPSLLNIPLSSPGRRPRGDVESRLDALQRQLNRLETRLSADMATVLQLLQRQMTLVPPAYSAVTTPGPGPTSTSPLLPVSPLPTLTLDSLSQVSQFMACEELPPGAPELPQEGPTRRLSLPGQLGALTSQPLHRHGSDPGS
Experiment: hERG cardiac toxicity assay (automated QPatch, CHO cells expressing hERG)
Settings: QPatch whole-cell recording
pIC50: −log10 of the molar value.
property_name: pIC50

Asked: For the compound CCCCCCCC(=O)Oc1cccc(O)c1C(=O)NC(=O)NC1c2ccccc2-c2ccccc21 , report pIC50.
Given back: < 4.82

* * *

Test system: HCV Con1-1b replicon
Experiment: HCV Con1-1b subgenomic replicon assay
Assay type: cell-based
Conditions: Hepatitis C virus; Table 4; read-out: Anti-HCV Activity EC50 ± SD Replicon Assay Con1-1b
Provide the reported pEC50 of each item.
Reminder that pEC50 is minus the log10 of a molar concentration.

Asked: Input CCCCCC(=O)Oc1cccc(O)c1C(=O)NC(=O)NC1c2ccccc2-c2ccccc21 , output reported pEC50.
Given back: 6.00

Asked: Give recorded pEC50. O=C(NC(=O)c1c(OC(=O)c2ccccc2)cccc1OC(=O)c1ccccc1)NC1c2ccccc2-c2ccccc21
Given back: 6.41

Asked: Give me measured pEC50, please, for this molecule: CCCC(=O)Oc1cccc(O)c1C(=O)NC(=O)NC1c2ccccc2-c2ccccc21
Given back: 6.31

Asked: Using the record for CCCCC(=O)Oc1cccc(O)c1C(=O)NC(=O)NC1c2ccccc2-c2ccccc21 , state its measured pEC50.
Given back: 6.36

Asked: Read the entry CCC(=O)Oc1cccc(O)c1C(=O)NC(=O)NC1c2ccccc2-c2ccccc21 and write its reported pEC50.
Given back: 6.14

Asked: Input CCC(=O)Oc1cccc(OC(=O)CC)c1C(=O)NC(=O)NC1c2ccccc2-c2ccccc21 , output reported pEC50.
Given back: 6.42

Asked: Specify reported pEC50 for the molecule shown: CCCCCC(=O)Oc1cccc(OC(=O)CCCCC)c1C(=O)NC(=O)NC1c2ccccc2-c2ccccc21
Given back: 6.14

Asked: Entry O=C(NC(=O)c1c(OC(=O)C2CC2)cccc1OC(=O)C1CC1)NC1c2ccccc2-c2ccccc21 needs its pEC50 filled in; supply it.
Given back: 6.22
